Test system: BaF3
Test: cells
Assay type: functional, cell-based
Conditions: Mus musculus, BaF3, 72 h
Description: Cytotoxicity against mouse BaF3 cells harboring EGFR L858R mutant assessed as inhibition of cell growth incubated for 72 hrs by MTS assay
readout.name: pIC50
# pIC50: negative log10 of molar concentration; output just the value

Query: Could you share which pIC50 value was measured for COc1cc2ncnc(Nc3ccc(F)c(Cl)c3)c2cc1NC(=O)/C=C/CN1CCCCC1 [DACOMITINIB ANHYDROUS] ?
Response: 8.59

---

Target: Dual specificity mitogen-activated protein kinase kinase 1 (Homo sapiens, UniProt Q02750)
Sequence (Q02750 whole entry): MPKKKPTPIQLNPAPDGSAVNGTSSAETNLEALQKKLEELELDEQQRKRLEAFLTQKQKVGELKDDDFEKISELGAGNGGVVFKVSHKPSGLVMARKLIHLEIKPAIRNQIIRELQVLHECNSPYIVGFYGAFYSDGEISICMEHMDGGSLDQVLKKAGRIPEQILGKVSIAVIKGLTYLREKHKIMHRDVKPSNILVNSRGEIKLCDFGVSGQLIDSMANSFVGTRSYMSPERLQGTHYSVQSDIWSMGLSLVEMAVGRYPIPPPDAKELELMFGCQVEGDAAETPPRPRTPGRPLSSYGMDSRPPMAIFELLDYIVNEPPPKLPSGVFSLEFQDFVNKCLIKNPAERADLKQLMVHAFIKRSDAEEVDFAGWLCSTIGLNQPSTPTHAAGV
Assay: Inhibition of recombinant MEK1 (unknown origin)
pIC50: −log10 of the molar value.
readout.name: pIC50

Query: Record request: pIC50 value, item COc1cc2ncnc(Nc3ccc(F)c(Cl)c3)c2cc1NC(=O)/C=C/CN1CCCCC1 [DACOMITINIB ANHYDROUS]
Response: < 4.40
